tested-on: Acetylcholinesterase (Homo sapiens)
assay-protocol: Acetylcholinesterase (AChE) small molecule antagonists: colormetric cell-based qHTS assay (AID 1347395); note: nearly all actives have a fitted effect of over 30% in size
experimental-context: SH-SY5Y cells AChE activity, colorimetric (Ellman); series mostly up to 115 µM
Records with an inconclusive call do not appear. Activity calls are given as the source filed them. Calls come from the whole dose curve.
I would appreciate it if you answered using one of these outcomes: 1 for active, 0 for inactive

compound="CCOC1Oc2ccc(OS(C)(=O)=O)cc2C1(C)C (stereo unspecified)" group=0
compound=C=C1C[C@@H]2[C@H](CC[C@]3(C)C(=O)CC[C@@H]23)[C@@]2(C)C=CC(=O)C=C12 group=0
compound=NNCc1ccccc1 group=0
compound=CCCCCCCCBr group=0
compound=N[C@@H]1C[C@H]1c1ccccc1 group=0

For the next question, use this compound.
Incoming: Please indicate how the test categorized O=C/C=C/c1ccco1 .
Outgoing: 0
